The following sequences are shown together with reported binding signal values.
Biological target: GST-Dm-Relish (Drosophila melanogaster, UniProt Q94527 99-473)
Sequence: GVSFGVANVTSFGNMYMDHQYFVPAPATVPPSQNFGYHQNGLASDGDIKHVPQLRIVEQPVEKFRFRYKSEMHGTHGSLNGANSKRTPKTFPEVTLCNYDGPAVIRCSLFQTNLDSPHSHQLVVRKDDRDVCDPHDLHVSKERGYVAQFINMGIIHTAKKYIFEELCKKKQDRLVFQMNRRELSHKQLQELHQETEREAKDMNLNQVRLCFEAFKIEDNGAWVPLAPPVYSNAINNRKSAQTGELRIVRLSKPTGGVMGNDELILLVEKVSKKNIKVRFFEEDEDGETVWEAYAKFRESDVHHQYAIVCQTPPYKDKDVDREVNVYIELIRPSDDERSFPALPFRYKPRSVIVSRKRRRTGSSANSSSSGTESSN
Assay: protein-binding microarray (PBM); PBM: ~300 nM protein, 6 mM HEPES pH 7.8, 80 mM KCl, 0.5 mM EDTA, 0.5 mM EGTA, 6% glycerol, 35 ng/ul poly-dIdC, 1% milk, 1 h, room temperature; Ap Aiptasia and Nv Nematostella (sea anemones) / Co Capsaspora / Aq Amphimedon (sponge) / Dm Drosophila / Hu human; RHD is the Rel homology domain; high values mean tight binding
Conditions: dsDNA, one strand shown
ASSAY_ENDPOINT: binding signal

# SEQUENCE_ENTRY, SYSTEM_NAME, VAL
data = [
    ("CCGATTAACATCATCTCCCCCCATGATGTTAATCGGGTCTTGATTCGCTTGACGCTGCTG", "GST-Dm-Relish (Drosophila melanogaster, UniProt Q94527 99-473)", "2.29 z-score"),
    ("CCGATTAACATCAAGGGGGATATTGATGTTAATCGGGTCTTGATTCGCTTGACGCTGCTG", "GST-Dm-Relish (Drosophila melanogaster, UniProt Q94527 99-473)", "5.23 z-score"),
    ("CCGATTAACATCAAAACCCCCCATGATGTTAATCGGGTCTTGATTCGCTTGACGCTGCTG", "GST-Dm-Relish (Drosophila melanogaster, UniProt Q94527 99-473)", "9.53 z-score"),
    ("CCGATTAACATCACAAAGTCCCCTGATGTTAATCGGGTCTTGATTCGCTTGACGCTGCTG", "GST-Dm-Relish (Drosophila melanogaster, UniProt Q94527 99-473)", "7.95 z-score"),
    ("CCGATTAACATCACGGGGGGGGCTGATGTTAATCGGGTCTTGATTCGCTTGACGCTGCTG", "GST-Dm-Relish (Drosophila melanogaster, UniProt Q94527 99-473)", "4.98 z-score"),
    ("CCGATTAACATCAGGGGAATCCATGATGTTAATCGGGTCTTGATTCGCTTGACGCTGCTG", "GST-Dm-Relish (Drosophila melanogaster, UniProt Q94527 99-473)", "9.65 z-score"),
    ("CCGATTAACATCACAGGGAATTCTGATGTTAATCGGGTCTTGATTCGCTTGACGCTGCTG", "GST-Dm-Relish (Drosophila melanogaster, UniProt Q94527 99-473)", "3.71 z-score"),
    ("CCGATTAACATCACAAAAAATCCTGATGTTAATCGGGTCTTGATTCGCTTGACGCTGCTG", "GST-Dm-Relish (Drosophila melanogaster, UniProt Q94527 99-473)", "1.98 z-score"),
    ("CCGATTAACATCAGGAACTTCCCTGATGTTAATCGGGTCTTGATTCGCTTGACGCTGCTG", "GST-Dm-Relish (Drosophila melanogaster, UniProt Q94527 99-473)", "4.4 z-score"),
]

Attribution: paper PMC5700166
